B1: USP39 (parent)
chain: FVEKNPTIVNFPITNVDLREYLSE

Variants of: B1
Test: protein stability index of a GFP-peptide fusion (GPS, HEK-293T) (PSI 1-6); higher = more stable;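 further: lentivirally expressed fusions sorted by FACS into six bins by GFP to DsRed ratio, PSI derived from sequencing read proportions per bin multiplied by bin number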
Conditions: c terminus: a fixed tail appended
# protein stability index values compiled below
Number only, no unit.

>  <changes>
P12N

>  <quantity>
protein stability index

>  <result.number>
2.3

$$$$
>  <changes>
V16I

>  <quantity>
protein stability index

>  <result.number>
1.6

$$$$
>  <changes>
E3P

>  <quantity>
protein stability index

>  <result.number>
2.41

$$$$

Ask: Supply measured protein stability index of "S23M" in your reply.
Reply: 2

Ask: Supply measured protein stability index of "I8H" in your reply.
Reply: 2.12

Ask: Supply measured protein stability index of "N10P" in your reply.
Reply: 2.42

Ask: Supply measured protein stability index of "I13K" in your reply.
Reply: 2.25

Ask: Supply measured protein stability index of "F1E" in your reply.
Reply: 4.26

Ask: Supply measured protein stability index of "R19N" in your reply.
Reply: 1.99

Ask: Supply measured protein stability index of "E20A" in your reply.
Reply: 1.46

Ask: Supply measured protein stability index of "R19T" in your reply.
Reply: 1.63
